- METHOD: activity coefficient (dimensionless); of the first substance listed, at infinite dilution; xn = mol fraction of the nth substance listed
- EXPERIMENTAL CONDITIONS: 363.15 K; Liquid; Chromatography; x1 = 0
EXPERIMENTAL ENDPOINT: activity coefficient

INSERT INTO assay_data (compound, assay_result) VALUES
  ('C1CCCCC1 [cyclohexane] + CCCCCCn1cc[n+](C)c1.O=S(=O)([O-])C(F)(F)F', 10.5),
  ('Cc1ccccc1 [toluene] + CCCCCCn1cc[n+](C)c1.O=S(=O)([O-])C(F)(F)F', 2.27),
  ('CC(C)CC(C)(C)C [2,2,4-trimethylpentane] + CCCCCCn1cc[n+](C)c1.O=S(=O)([O-])C(F)(F)F', 25.4),
  ('C=Cc1ccccc1 [styrene] + CCCCCCn1cc[n+](C)c1.O=S(=O)([O-])C(F)(F)F', 1.88),
  ('Cc1ccc(C)cc1 [1,4-dimethylbenzene] + CCCCCCn1cc[n+](C)c1.O=S(=O)([O-])C(F)(F)F', 3.22);

---

- METHOD: activity coefficient (dimensionless); of the first substance listed, at infinite dilution; xn = mol fraction of the nth substance listed
- EXPERIMENTAL CONDITIONS: 353.15 K; Liquid; Chromatography; x1 = 0
Below, each of the compounds is paired with its reported activity coefficient value.
EXPERIMENTAL ENDPOINT: activity coefficient

INSERT INTO measurements (compound, assay_result) VALUES
  ('CCCCCCCC [octane] + CCCCCCn1cc[n+](C)c1.O=S(=O)([O-])C(F)(F)F', 32.7),
  ('C1CCCCC1 [cyclohexane] + CCCCCCn1cc[n+](C)c1.O=S(=O)([O-])C(F)(F)F', 10.5),
  ('CCCCCCC [heptane] + CCCCCCn1cc[n+](C)c1.O=S(=O)([O-])C(F)(F)F', 26.3),
  ('CC1CCCCC1 [methylcyclohexane] + CCCCCCn1cc[n+](C)c1.O=S(=O)([O-])C(F)(F)F', 13.6),
  ('Cc1ccc(C)cc1 [1,4-dimethylbenzene] + CCCCCCn1cc[n+](C)c1.O=S(=O)([O-])C(F)(F)F', 3.16),
  ('C=Cc1ccccc1 [styrene] + CCCCCCn1cc[n+](C)c1.O=S(=O)([O-])C(F)(F)F', 1.85),
  ('CCCCCCCCC [nonane] + CCCCCCn1cc[n+](C)c1.O=S(=O)([O-])C(F)(F)F', 40.3),
  ('CCCCCC [hexane] + CCCCCCn1cc[n+](C)c1.O=S(=O)([O-])C(F)(F)F', 20.7);

---

- METHOD: activity coefficient (dimensionless); of the first substance listed, at infinite dilution; xn = mol fraction of the nth substance listed
- EXPERIMENTAL CONDITIONS: 343.15 K; Liquid; Chromatography; x1 = 0
Flag rule - activity coefficient less than 3 flags 1.0; the remaining entries get 0.0.

INSERT INTO results (compound, group_label) VALUES
  ('Cc1cccc(C)c1 [1,3-dimethylbenzene] + CCCCCCn1cc[n+](C)c1.O=S(=O)([O-])C(F)(F)F', 0.0),
  ('CCc1ccccc1 [ethylbenzene] + CCCCCCn1cc[n+](C)c1.O=S(=O)([O-])C(F)(F)F', 0.0),
  ('c1ccccc1 [benzene] + CCCCCCn1cc[n+](C)c1.O=S(=O)([O-])C(F)(F)F', 1.0),
  ('C=Cc1ccccc1 [styrene] + CCCCCCn1cc[n+](C)c1.O=S(=O)([O-])C(F)(F)F', 1.0),
  ('CCCCC [pentane] + CCCCCCn1cc[n+](C)c1.O=S(=O)([O-])C(F)(F)F', 0.0),
  ('CCCCCC [hexane] + CCCCCCn1cc[n+](C)c1.O=S(=O)([O-])C(F)(F)F', 0.0),
  ('CCCCCCCCCC [decane] + CCCCCCn1cc[n+](C)c1.O=S(=O)([O-])C(F)(F)F', 0.0),
  ('CCCCCCC [heptane] + CCCCCCn1cc[n+](C)c1.O=S(=O)([O-])C(F)(F)F', 0.0);

---

- METHOD: activity coefficient (dimensionless); of the first substance listed, at infinite dilution; xn = mol fraction of the nth substance listed
- EXPERIMENTAL CONDITIONS: 303.15 K; Liquid; Chromatography; x1 = 0
EXPERIMENTAL ENDPOINT: activity coefficient

INSERT INTO measurements (compound, assay_result) VALUES
  ('CCCCCC [hexane] + CCCCCCn1cc[n+](C)c1.O=S(=O)([O-])C(F)(F)F', 21.3),
  ('CCCCCCC [heptane] + CCCCCCn1cc[n+](C)c1.O=S(=O)([O-])C(F)(F)F', 26.9),
  ('C1CCCCC1 [cyclohexane] + CCCCCCn1cc[n+](C)c1.O=S(=O)([O-])C(F)(F)F', 11),
  ('CCCCC [pentane] + CCCCCCn1cc[n+](C)c1.O=S(=O)([O-])C(F)(F)F', 14.8),
  ('c1ccccc1 [benzene] + CCCCCCn1cc[n+](C)c1.O=S(=O)([O-])C(F)(F)F', 1.43),
  ('CCc1ccccc1 [ethylbenzene] + CCCCCCn1cc[n+](C)c1.O=S(=O)([O-])C(F)(F)F', 2.88),
  ('CCCCCCCCCC [decane] + CCCCCCn1cc[n+](C)c1.O=S(=O)([O-])C(F)(F)F', 457),
  ('Cc1ccc(C)cc1 [1,4-dimethylbenzene] + CCCCCCn1cc[n+](C)c1.O=S(=O)([O-])C(F)(F)F', 2.76),
  ('CC(C)CC(C)(C)C [2,2,4-trimethylpentane] + CCCCCCn1cc[n+](C)c1.O=S(=O)([O-])C(F)(F)F', 27.5),
  ('C=Cc1ccccc1 [styrene] + CCCCCCn1cc[n+](C)c1.O=S(=O)([O-])C(F)(F)F', 1.7),
  ('Cc1ccccc1C [1,2-dimethylbenzene] + CCCCCCn1cc[n+](C)c1.O=S(=O)([O-])C(F)(F)F', 2.39),
  ('Cc1ccccc1 [toluene] + CCCCCCn1cc[n+](C)c1.O=S(=O)([O-])C(F)(F)F', 1.98),
  ('CC1CCCCC1 [methylcyclohexane] + CCCCCCn1cc[n+](C)c1.O=S(=O)([O-])C(F)(F)F', 14.1),
  ('Cc1cccc(C)c1 [1,3-dimethylbenzene] + CCCCCCn1cc[n+](C)c1.O=S(=O)([O-])C(F)(F)F', 2.82),
  ('C1=CCCCC1 [cyclohexene] + CCCCCCn1cc[n+](C)c1.O=S(=O)([O-])C(F)(F)F', 6.12),
  ('CCCCCCCC [octane] + CCCCCCn1cc[n+](C)c1.O=S(=O)([O-])C(F)(F)F', 35),
  ('CCCCCCCCC [nonane] + CCCCCCn1cc[n+](C)c1.O=S(=O)([O-])C(F)(F)F', 45.4);

---

- METHOD: activity coefficient (dimensionless); of the first substance listed, at infinite dilution; xn = mol fraction of the nth substance listed
- EXPERIMENTAL CONDITIONS: 343.15 K; Liquid; Chromatography; x1 = 0
Flag rule - activity coefficient less than 10 flags t; the remaining entries get f.

INSERT INTO results (molecule, group_label) VALUES
  ('C1=CCCCC1 [cyclohexene] + CCCCCCn1cc[n+](C)c1.O=S(=O)([O-])C(F)(F)F', 't'),
  ('CCCCCCCC [octane] + CCCCCCn1cc[n+](C)c1.O=S(=O)([O-])C(F)(F)F', 'f'),
  ('CC1CCCCC1 [methylcyclohexane] + CCCCCCn1cc[n+](C)c1.O=S(=O)([O-])C(F)(F)F', 'f'),
  ('CC(C)CC(C)(C)C [2,2,4-trimethylpentane] + CCCCCCn1cc[n+](C)c1.O=S(=O)([O-])C(F)(F)F', 'f'),
  ('C1CCCCC1 [cyclohexane] + CCCCCCn1cc[n+](C)c1.O=S(=O)([O-])C(F)(F)F', 'f'),
  ('Cc1ccccc1C [1,2-dimethylbenzene] + CCCCCCn1cc[n+](C)c1.O=S(=O)([O-])C(F)(F)F', 't'),
  ('Cc1ccccc1 [toluene] + CCCCCCn1cc[n+](C)c1.O=S(=O)([O-])C(F)(F)F', 't'),
  ('CCCCCCCCC [nonane] + CCCCCCn1cc[n+](C)c1.O=S(=O)([O-])C(F)(F)F', 'f'),
  ('Cc1ccc(C)cc1 [1,4-dimethylbenzene] + CCCCCCn1cc[n+](C)c1.O=S(=O)([O-])C(F)(F)F', 't');

---

- METHOD: activity coefficient (dimensionless); of the first substance listed, at infinite dilution; xn = mol fraction of the nth substance listed
- EXPERIMENTAL CONDITIONS: 363.15 K; Liquid; Chromatography; x1 = 0
EXPERIMENTAL ENDPOINT: activity coefficient

INSERT INTO results (compound, assay_result) VALUES
  ('Cc1ccccc1C [1,2-dimethylbenzene] + CCCCCCn1cc[n+](C)c1.O=S(=O)([O-])C(F)(F)F', 2.8),
  ('CCCCCCCC [octane] + CCCCCCn1cc[n+](C)c1.O=S(=O)([O-])C(F)(F)F', 32),
  ('CCCCCCCCCC [decane] + CCCCCCn1cc[n+](C)c1.O=S(=O)([O-])C(F)(F)F', 112),
  ('CC1CCCCC1 [methylcyclohexane] + CCCCCCn1cc[n+](C)c1.O=S(=O)([O-])C(F)(F)F', 13.5);
